Tested on: SR leukemia
Assay: NCI tumour cell line growth inhibition, 48 h; in the data active = GI50 below about 0.43 µM; inactive = the rest
Outcomes: true (active), false (inactive)

> print(dat)
                                   compound  target.entity  class.label
1  CCN1C(=O)N(CC)C2C1NN=c1s/c(=C\c3ccc(Br)cc3)c(=O)n12 (stereo not given)    SR leukemia         true
2  CC1(/C=C/c2ccc(-c3ccccc3)cc2)CCn2cnc3ncnc(c32)N1O (stereo not given)    SR leukemia         true
3  Cc1cc(S(=O)(=O)Nc2nc3ccccc3s2)c(SCc2ccccc2)cc1Cl    SR leukemia        false
4     CC(C)Cc1cc(-c2cccn2C)c(C#N)c(=O)[nH]1    SR leukemia        false
5   O=C(Nc1cccc(Cl)c1)Nc1cc(C(F)(F)F)ccc1Cl    SR leukemia        false

Reference source for all entries: PubChem BioAssay (NCI)
